The compounds listed here are annotated with their Normal melting temperature.
# particulars: Crystal; visual observation
observation-type: Normal melting temperature (°C)

> print(dat)
                                   compound  quantitative.readout
1                  CCCCCCCCCCO [decan-1-ol]                   7.0
2  CC(C)[C@@H]1CC[C@@H](C)C[C@H]1O [L-menthol]                  42.8
3              OCc1ccccc1 [benzenemethanol]                 -15.0
4  Cc1ccc(C(C)C)c(O)c1 [3-methyl-6-isopropylphenol]                  50.0

* * *

The compounds listed here are annotated with their Normal melting temperature.
# particulars: Crystal; DTA
observation-type: Normal melting temperature (°C)

> print(dat)
                   smiles.notation  unit.label  quantitative.readout
1  CC(C)[C@@H]1CC[C@@H](C)C[C@H]1O          °C                  43.6
2                      CCCCCCCCCCO          °C                   7.0
3              Cc1ccc(C(C)C)c(O)c1          °C                  49.7
4                       OCc1ccccc1          °C                 -15.0
